target: Laminin 421/521; test: phage display, NGS count
What Count was measured for each of the following?
One number for each entry.

Study these solved cases before continuing.
> print(dat)
         binder  valuekind  readoutnumber
1  DDLLTAPRLGVW      Count             54
2  GPMLKNLSDAVT      Count             31
3  NDTGRHASGISK      Count             32
4  VYRNGGGLPLTA      Count             34
5       TAPRWTQ      Count             30
6     CKSERGPEC      Count             30
7  GGYDLPWANWQN      Count            497

API: the following record is the query input.
Prompt line: Value lookup for Count; key = NHDQGSLTRWRS
Response line: 31
